Origin of the recorded values: ChEMBL document CHEMBL4257449

Test system: Listeria monocytogenes
Test: Bactericidal activity against Listeria monocytogenes NCTC 7973 incubated for 24 hrs followed by serial sub-cultivation and measured after 24 hrs by microdilution method
Assay type: functional
RECORDED_ENDPOINT: MBC99.5 (×10⁻² umol/ml)
Dear colleague, please return just the value in ×10⁻² umol/ml, with no unit written.

Exercise: Form field - read-out: MBC99.5; system: Listeria monocytogenes; submitted item: O=C(Cc1nsc2ccccc12)NN1C(=O)CSC1c1ccccc1 (stereo not drawn)
Solution: 40.5

Exercise: // lookup MBC99.5 | system=Listeria monocytogenes | key= O=C(NN1C(=O)CSC1c1c(Cl)cccc1Cl)c1nsc2ccccc12 (stereo not drawn)
Solution: 79

Exercise: Tell me reported MBC99.5 for O=C(NN1C(=O)CSC1c1ccccc1Cl)c1nsc2ccccc12 (stereo not drawn) , tested with Listeria monocytogenes.
Solution: 76.8

Exercise: Give the reported MBC99.5 for O=C(NN1C(=O)CSC1c1ccc(F)cc1)c1nsc2ccccc12 (stereo not drawn) (system: Listeria monocytogenes).
Solution: 40.2

Exercise: State its MBC99.5 on Listeria monocytogenes: O=C(N/N=C/c1c(Cl)cccc1Cl)c1nsc2ccccc12
Solution: 46.4

Exercise: Provide the documented MBC99.5 with Listeria monocytogenes as the system for O=C(NN1C(=O)CSC1c1c(F)cccc1F)c1nsc2ccccc12 (stereo not drawn)
Solution: 40.8

Exercise: Which measured MBC99.5 belongs to O=C(Cc1nsc2ccccc12)NN1C(=O)CSC1c1cccc(Cl)c1 (stereo not drawn) , tested on Listeria monocytogenes?
Solution: 37.2

Exercise: Lab request: please report MBC99.5 under test system Listeria monocytogenes for O=C(Cc1nsc2ccccc12)NN1C(=O)CSC1c1c(F)cccc1Cl (stereo not drawn)
Solution: 73.4

Exercise: I'm curious: which MBC99.5 was measured for CC1(C)S[C@@H]2[C@H](NC(=O)[C@H](N)c3ccccc3)C(=O)N2[C@H]1C(=O)O tested on Listeria monocytogenes?
Solution: 74.4

Exercise: Recorded MBC99.5 for O=C(N/N=C/c1c(F)cccc1Cl)c1nsc2ccccc12 with Listeria monocytogenes, please?
Solution: 48

Exercise: Give recorded MBC99.5 with Listeria monocytogenes for the following molecule: O=C(Cc1nsc2ccccc12)NN1C(=O)CSC1c1ccc(Cl)cc1 (stereo not drawn)
Solution: 111.6

Exercise: MBC99.5 of O=C(NN1C(=O)CSC1c1ccccc1F)c1nsc2ccccc12 (stereo not drawn) on Listeria monocytogenes?
Solution: 40.2

Exercise: Tell me reported MBC99.5 for O=C(NN1C(=O)CSC1c1ccc(Cl)cc1)c1nsc2ccccc12 (stereo not drawn) , tested with Listeria monocytogenes.
Solution: 76.8

Exercise: // map O=C(NN1C(=O)CSC1c1c(F)cccc1Cl)c1nsc2ccccc12 (stereo not drawn) to recorded MBC99.5 (system: Listeria monocytogenes)
Solution: 36.8

Exercise: Lab note: need MBC99.5 for O=C(NN1C(=O)CSC1c1cccc(F)c1)c1nsc2ccccc12 (stereo not drawn) on Listeria monocytogenes, anyone have it?
Solution: 40.2

Exercise: Can you look up MBC99.5 on Listeria monocytogenes for O=C(Cc1nsc2ccccc12)N/N=C/c1c(F)cccc1Cl ?
Solution: 96.4

Exercise: What MBC99.5 appears in the records for this molecule with Listeria monocytogenes? O=C(NN1C(=O)CSC1c1cccc(Cl)c1)c1nsc2ccccc12 (stereo not drawn)
Solution: 3.84

Exercise: Report MBC99.5 for O=C(Cc1nsc2ccccc12)NN1C(=O)CSC1c1c(F)cccc1F (stereo not drawn) tested on Listeria monocytogenes.
Solution: 74

Exercise: What value of MBC99.5 on Listeria monocytogenes does CN[C@@H]1[C@H](O[C@H]2[C@H](O[C@H]3[C@H](O)[C@@H](O)[C@H](N=C(N)N)[C@@H](O)[C@@H]3N=C(N)N)O[C@@H](C)[C@]2(O)C=O)O[C@@H](CO)[C@H](O)[C@H]1O have?
Solution: 51.6
